molecular target: Follistatin (Homo sapiens) (UniProt P19883); test: follistatin binders on small-molecule microarrays, primary screen, biochemical, small-molecule microarray, 635/667 nm fluorescence (AID 1132); details: FST binding, 635 nm fluorescence, higher = more signal
Sequence (P19883 whole entry, looked up): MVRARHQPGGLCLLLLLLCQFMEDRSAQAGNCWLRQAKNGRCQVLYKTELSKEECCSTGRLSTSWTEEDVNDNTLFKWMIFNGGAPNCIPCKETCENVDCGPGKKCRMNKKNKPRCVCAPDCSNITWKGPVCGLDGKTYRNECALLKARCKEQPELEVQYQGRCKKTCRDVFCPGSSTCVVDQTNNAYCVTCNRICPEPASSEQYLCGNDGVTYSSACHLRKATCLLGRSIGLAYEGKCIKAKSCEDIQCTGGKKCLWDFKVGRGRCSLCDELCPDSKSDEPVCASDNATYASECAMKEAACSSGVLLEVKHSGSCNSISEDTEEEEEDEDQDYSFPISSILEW
True means recorded composite z-score is 0.6 or above; False means it is below 0.6.

>  <Molecule>
CCOC(=O)C1=C[C@@H](c2ccccc2)N(S(=O)(=O)c2ccc(C)cc2)[C@H]1c1cccc(Cl)c1

>  <Group>
True

$$$$
>  <Molecule>
CC(=O)n1cc(C(O)C2C=CC3C(=O)N(c4ccccc4)C(=O)C3N2Nc2ccccc2)c2ccccc21 (centres undefined)

>  <Group>
True

$$$$
>  <Molecule>
COCCOC(=O)N1C(=O)[C@@]2(c3cc(C#CC4(O)CCCCCC4)ccc31)[C@H](C(=O)N1CCCCCCC1)[C@H]1C(=O)O[C@H](c3ccccc3)[C@H](c3ccccc3)N1[C@@H]2c1ccc(OCCO)cc1

>  <Group>
True

$$$$
>  <Molecule>
C=CCC(OC(C)=O)[C@@H]1[C@@H](N(Cc2ccc(-c3ccccc3)cc2)C(=O)c2cccc3ccccc23)c2cc(OCCCO)ccc2N1C(=O)Cc1ccc2ccccc2c1 (some centres undefined)

>  <Group>
False

$$$$
>  <Molecule>
Cc1ccc(S[C@]2(C(=O)NC(C)C)CC(=O)N(C3Cc4ccccc4C3)[C@@H]2c2ccc(CO)cc2I)cc1

>  <Group>
False

$$$$
>  <Molecule>
COC1(C)CN(Cc2ccccc2Br)[C@H](/C=C/c2ccccc2)[C@H](Cc2ccccc2)O1 (some centres undefined)

>  <Group>
False

$$$$
>  <Molecule>
COCCOC(=O)N1C(=O)[C@@]2(c3ccccc31)[C@H](c1ccc(OCCO)cc1)N1[C@H](c3ccccc3)[C@H](c3ccccc3)OC(=O)[C@H]1[C@@H]2C(=O)Nc1nc2ccccc2s1

>  <Group>
True

$$$$
>  <Molecule>
C[N+](C)(C)CCCC[C@@H]1NC(=O)[C@@H]2C[C@H](C(=O)O)[C@H](c3ccc(O)cc3)N2C1=O

>  <Group>
False

$$$$
>  <Molecule>
CO[C@H]1O[C@H](CO)[C@@H](OC(=O)Nc2ccccc2-c2ccccc2)[C@H](OC(=O)Nc2ccc3c(c2)OCO3)[C@@H]1OC(=O)Nc1ccc2c(c1)OCO2

>  <Group>
True

$$$$
>  <Molecule>
O=C1NCC(=O)N2[C@@H]1C[C@@H](C(=O)O)[C@H]2c1ccc(O)cc1

>  <Group>
True

$$$$
>  <Molecule>
C=CCN1C(=O)[C@@]2(CCC(=O)OC(C)(C)C)N=C(c3ccc(OCCCO)cc3)O[C@H]2c2ccccc21

>  <Group>
True

$$$$
>  <Molecule>
COc1cc(CO)cc(I)c1O[C@H]1C=C(C(=O)NCCO)C[C@@H](N(CC2CCCCC2)C(=O)c2ccc(C(F)(F)F)cc2)[C@@H]1O

>  <Group>
False

$$$$
>  <Molecule>
CN(C)CCCN1C(=O)[C@@]2(c3ccc([N+](=O)[O-])cc3)CC(=O)N(CC34CC5CC(CC(C5)C3)C4)[C@@H]2c2ccc(CO)cc21

>  <Group>
False

$$$$
>  <Molecule>
C=CCNC(=O)[C@@H]1[C@H]2C(=O)O[C@H](c3ccccc3)[C@H](c3ccccc3)N2[C@H](c2ccccc2OCCO)[C@@]12C(=O)N(C(=O)OCCOC)c1ccc(C#CC3=CCCCC3)cc12

>  <Group>
True

$$$$
>  <Molecule>
COc1c(C)cc(-c2cc3c(c(Cc4ccccc4)n2)[Si](C(C)C)(C(C)C)OC3)cc1C

>  <Group>
False

$$$$
>  <Molecule>
C=C[C@@H](C)[C@H](OC(=O)Nc1ccc(SC)cc1)c1ccc(OCCO)cc1

>  <Group>
False

$$$$
>  <Molecule>
C=C(/C(=C/C[C@@H](OC(=O)c1ccncc1)c1ccccc1OCCO)c1cc(C(=O)OC)ccc1OC)C(C)C

>  <Group>
True

$$$$
>  <Molecule>
NC(=O)NCC#Cc1ccc2c(c1)[C@]1(C(=O)N2)[C@H](c2ccc(O)cc2)N2[C@H](c3ccccc3)[C@H](c3ccccc3)OC(=O)[C@H]2[C@@H]1C(=O)Nc1nc2ccccc2s1

>  <Group>
True

$$$$
>  <Molecule>
COc1cc(OC)c(C(O)C2C=CC3C(=O)N(c4ccccc4)C(=O)C3N2Nc2ccc(C#N)cc2)cc1Br (centres undefined)

>  <Group>
True

$$$$

---

experiment: E. coli acrAB mutant growth effects, primary screen, E. coli filamentation inducers, strain DRC39, OD650, 48 h (AID 1179);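 also: screen aims at cell division blockers that make cells filament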; details: E. coli DRC39 delta-acrAB growth, higher = more signal, called active from +8 up or from −8 down
Active and inactive are the calls of the source.
Reported z-score by item:

>  <Compound>
C=C[C@H](COC(C)=O)NS(=O)(=O)c1ccc(Br)cc1

>  <z-score>
-0.0304 (inactive)

$$$$
>  <Compound>
O=C1O[C@@H](c2ccccc2)[C@@H](c2ccccc2)N2[C@@H](c3ccccc3OCCO)[C@]3(C(=O)Nc4ccccc43)[C@@H](C(=O)NC[C@H](O)c3ccccc3)[C@H]12

>  <z-score>
0.495 (inactive)

$$$$
>  <Compound>
C=CCN1Cc2ccccc2C[C@@]2(N=C(c3ccc(OCCCO)cc3)O[C@H]2c2ccccc2)C1=O

>  <z-score>
0.468 (inactive)

$$$$
>  <Compound>
COc1c(C)cc(-c2cc3c(c(-c4ccccc4)n2)[Si](C(C)C)(C(C)C)OC3)cc1C

>  <z-score>
0.319 (inactive)

$$$$
>  <Compound>
COC(=O)C[C@H]1O[C@]2(C(=O)N(C)c3ccccc32)[C@@H](C)[C@@H]1[Si](C)(C)c1ccc(C)cc1

>  <z-score>
-0.466 (inactive)

$$$$
>  <Compound>
CCOC(=O)C[C@H]1[C@H](OC(=O)c2ccc(-c3ccccc3)cc2)[C@@H](NC(=O)C2CCCCC2)c2cc(OCCCO)ccc2N1C(=O)c1ccccc1

>  <z-score>
-0.566 (inactive)

$$$$
>  <Compound>
CCOC(=O)[C@H]1C/C=C/C[C@H](C(=O)OCC)C(=O)O[C@H]2[C@@H](OC)O[C@H](CO)[C@@H](OC(=O)CCc3ccccc3)[C@@H]2OC1=O

>  <z-score>
0.558 (inactive)

$$$$
>  <Compound>
C[C@H]1ON(c2ccc(C(=O)OC(C)(C)C)cc2)[C@@H](c2ccc(O)cc2)[C@@H]1C(=O)N1C(=O)OC[C@@H]1c1ccccc1

>  <z-score>
-0.148 (inactive)

$$$$
>  <Compound>
NC(=O)N1C(=O)C2C(C1=O)C1C=C(CCCO)C2C(c2cccs2)N1Cc1cc2c(cc1Br)OCO2 (stereo not given)

>  <z-score>
0.0419 (inactive)

$$$$
>  <Compound>
O=C1C[C@@](C(=O)NCC(F)(F)F)(c2ccc([N+](=O)[O-])cc2)[C@@H](c2ccc(CO)cc2)N1C1CCCCC1

>  <z-score>
0.0421 (inactive)

$$$$

---

test system: Human papillomavirus type 1a E7 protein (residues 1-88); test: HPV1a E7 small-molecule binders, primary screen, biochemical, small-molecule microarray, residues 1-88, 635 nm (AID 1129); settings: small-molecule microarray binding, fluorescence 635 nm; higher = more signal
true (1) means recorded composite z-score is 0.6 or above; false (0) means it is below 0.6.

>  <Compound>
COC(=O)c1c(CC[C@@H](CO)NC(=O)N[C@H](Cn2cc(-c3ccccc3C)nn2)C(C)C)oc(C(C)=O)c1C(=O)OC

>  <Group>
false (0)

$$$$
>  <Compound>
C=CC[C@]1(C(=O)N(C)C)N=C(c2ccc(OCCCO)cc2)O[C@H]1c1ccccc1N=[N+]=[N-]

>  <Group>
true (1)

$$$$
>  <Compound>
COc1ccc([Si](C)(C)[C@H]2[C@H](CCn3cc([C@H](O)c4ccccc4)nn3)O[C@@]3(C(=O)N(Cc4ccc(N5CCC5=O)cc4)c4ccccc43)[C@@H]2C)cc1

>  <Group>
false (0)

$$$$
>  <Compound>
CN1C2C=C(CCCO)C(C3C(=O)N(C(N)=O)C(=O)C32)C1c1cccs1 (stereo not drawn)

>  <Group>
false (0)

$$$$
>  <Compound>
C=C(CCCC)/C(=C/C[C@@H](OC(C)=O)c1ccc(CO)o1)c1cc(C(=O)OC)ccc1OC

>  <Group>
true (1)

$$$$
>  <Compound>
C=CCOC(=O)[C@H]1[C@@H]2C(=O)O[C@@H](c3ccccc3)[C@@H](c3ccccc3)N2[C@@H](c2ccc(OCCOC(=O)[C@H]3C[C@H]4C(=O)N[C@@H](Cc5ccccc5)C(=O)N4[C@H]3c3cccc(OCCO)c3)cc2)[C@]12C(=O)Nc1ccc(I)cc12

>  <Group>
true (1)

$$$$
>  <Compound>
C=CCOC(=O)[C@@H]1[C@H]2C(=O)O[C@H](c3ccccc3)[C@H](c3ccccc3)N2[C@H](c2ccc(OCCOC(=O)[C@H]3C[C@H]4C(=O)N[C@@H](CC(C)C)C(=O)N4[C@H]3c3ccc(O)cc3)cc2)[C@@]12C(=O)Nc1ccc(I)cc12

>  <Group>
true (1)

$$$$
>  <Compound>
COc1ccc(CCNC(=O)[C@@]2(Sc3ccc(C)cc3)CC(=O)N(Cc3cc(C(F)(F)F)cc(C(F)(F)F)c3)[C@@H]2c2ccc(CO)cc2I)cc1

>  <Group>
false (0)

$$$$
>  <Compound>
C=CCC(OC(C)=O)[C@@H]1[C@@H](N(Cc2ccc(-c3ccccc3)cc2)C(=O)c2cccc3ccccc23)c2cc(OCCCO)ccc2N1C(=O)Cc1ccc2ccccc2c1 (stereo partly drawn)

>  <Group>
false (0)

$$$$
>  <Compound>
C=CCN1C(=O)[C@@]2(O[C@@H](CCO)[C@H]([Si](C)(C)c3ccc(OC)cc3)[C@H]2C)c2cc(N3C(=O)c4ccccc4Oc4ccccc43)ccc21

>  <Group>
false (0)

$$$$
>  <Compound>
[N-]=[N+]=Nc1ccccc1C[C@@]1(C(=O)O)N=C(c2ccc(OCCCO)cc2)O[C@@H]1c1ccccc1

>  <Group>
true (1)

$$$$
>  <Compound>
C[C@]1(C(=O)NC2CC2)c2ccccc2C(=O)N(Cc2ccc(OC(F)(F)F)cc2)[C@H]1c1ccc(CO)cc1

>  <Group>
true (1)

$$$$

Cited source: PubChem BioAssay
